- ASSAY SUMMARY: in vivo
- CONDITION: rat, concentrations in plasma lower than in pericardial fluid
QUANTITY MEASURED: Kp at 7 days

Return the recorded Kp at 7 days value; entry: C[C@]12CCC(=O)C=C1CC[C@@H]1[C@@H]2[C@@H](O)C[C@@]2(C)[C@H]1CC[C@]2(O)C(=O)CO [Cortisol]
≥ 7

----------
- ASSAY SUMMARY: Time course of infusion into the pericardial space
- Assay type: in vivo, male Wistar rats
- CONDITION: male, Wistar, rat, pericardial fluid and plasma, other: intrapericardial infusion, 7-day intrapericardial infusion (bFGF: days 3 to 7); read-out: ratio of concentration in pericardial fluid to concentration in plasma
QUANTITY MEASURED: Kp

Identify measured Kp corresponding to C[C@]12CCC(=O)C=C1CC[C@@H]1[C@@H]2[C@@H](O)C[C@@]2(C)[C@H]1CC[C@]2(O)C(=O)CO
12 to 52

Cited source for all entries: patent US20080095824A1
